# system_under_test: KRAS 4B G12C protein (Homo sapiens, UniProt P01116, G12C)
# Construct: This protein contained 188 amino acids in total, including an N-terminal 6-Histidine tag; made in house; host or cells: E. coli BL21
# test_details: In vitro covalent adduct formation (CAF) assay by LC-MS
# Type: binding
# settings: 10 minutes; compound 10 μM, protein 5 μM, 22° C.; percentage of protein bound by the compound
Kindly state CAF (10 minutes/60 minutes) at 10 micromolar: 10 minutes for each of the entries shown.
Only the number, expressed in %, is required.

Request: Using the record for C=CC(=O)N1CCN(c2nc(OC[C@@H]3CCCN3C)nc3c2CN(Cc2ncccc2Cl)C3)C[C@@H]1CC#N , report its CAF (10 minutes/60 minutes) at 10 micromolar: 10 minutes.
Response: 59

Request: What does the data say about its CAF (10 minutes/60 minutes) at 10 micromolar: 10 minutes? Entry: C=CC(=O)N1CCN(c2nc(OC[C@@H]3CCCN3C)nc3c2CN(C2CCOc4ccccc42)C3)C[C@@H]1CC#N (stereo partly shown)
Response: 59

Request: Please give the measured CAF (10 minutes/60 minutes) at 10 micromolar: 10 minutes for this compound: C=CC(=O)N1CCN(c2nc(OC[C@@H]3CCCN3C)nc3c2CN(Cc2cc(F)ccc2C(C)C)C3)C[C@@H]1CC#N
Response: 68

---

# system_under_test: KRAS 4B G12C protein (Homo sapiens, UniProt P01116, G12C)
# Construct: This protein contained 188 amino acids in total, including an N-terminal 6-Histidine tag; made in house; host or cells: E. coli BL21
# test_details: In vitro covalent adduct formation (CAF) assay by LC-MS
# Format: binding
# settings: 10 minutes; compound 10 μM, protein 5 μM, 22° C.; percentage of protein bound by the compound
Give measured CAF (10 minutes/60 minutes) at 10 micromolar: 10 minutes for each item. Keep answers brief.
Write the value in % as a bare number.

Request: Entry C=CC(=O)N1CCN(c2nc(OC[C@@H]3CCCN3C)nc3c2CN(Cc2cc(OC(F)F)ccc2Cl)C3)C[C@@H]1CC#N : reported CAF (10 minutes/60 minutes) at 10 micromolar: 10 minutes = ?
Response: 40

Request: What does the data say about its CAF (10 minutes/60 minutes) at 10 micromolar: 10 minutes? Entry: C=CC(=O)N1CCN(c2nc(OCC3CC3)nc3c2CN(C2CCc4ccccc42)C3)C[C@@H]1CC#N (stereo partly shown)
Response: 7

Request: Given C=CC(=O)N1CCN(c2nc(OC[C@@H]3CCCN3C)nc3c2CN(Cc2c(Cl)ccc4nc[nH]c24)C3)C[C@@H]1CC#N , state its recorded CAF (10 minutes/60 minutes) at 10 micromolar: 10 minutes.
Response: 94

Request: So what does the record say about CAF (10 minutes/60 minutes) at 10 micromolar: 10 minutes for C=CC(=O)N1CCN(c2nc(OC[C@@H]3CCCN3C)nc3c2CN(Cc2cc(O)ccc2C)C3)[C@@H](C)C1 ?
Response: 69

Request: Which CAF (10 minutes/60 minutes) at 10 micromolar: 10 minutes is reported for this compound? C=CC(=O)N1CCN(c2nc(OC[C@@H]3CCCN3C)nc3c2CN(Cc2ccccc2CCC)C3)C[C@@H]1CC#N
Response: 86

Request: Item under review: C=CC(=O)N1CCN(c2nc(OC[C@@H]3CCCN3C)nc3c2CN(C2CCc4ccccc42)C3)[C@@H](C#N)C1 (stereo partly shown) . Reported CAF (10 minutes/60 minutes) at 10 micromolar: 10 minutes?
Response: 21

Request: Consider the compound shown here: C=CC(=O)N1CCN(c2nc(OC[C@@H]3CCCN3C)nc3c2CN(Cc2cnccc2Cl)C3)C[C@@H]1CC#N What is its recorded CAF (10 minutes/60 minutes) at 10 micromolar: 10 minutes?
Response: 66
